Origin of the recorded values: paper PMC8404221

molecular target: Monoamine oxidase-A (MAO-A) (Homo sapiens); assay: biochemical; format: biochemical; details: MAO-A IC50, MAO-A Glo
pIC50: −log10 of the molar value.
parameter_measured: pIC50

[
  {
    "compound": "COc1ccc2c3c([nH]c2c1)C(C)=NCC3 [Harmaline, harmaline]",
    "parameter_measured": "pIC50",
    "measured_result": 7.05
  },
  {
    "compound": "Cc1nccc2c1[nH]c1ccccc12 [Harmane, harmane]",
    "parameter_measured": "pIC50",
    "measured_result": 6.19
  },
  {
    "compound": "CC1=NCCc2c1[nH]c1cc(O)ccc21 [Harmalol, harmalol]",
    "parameter_measured": "pIC50",
    "measured_result": 6.18
  },
  {
    "compound": "Cc1[nH]ccc2c1[nH]c1cc(=O)ccc12 [Harmol, harmol]",
    "parameter_measured": "pIC50",
    "measured_result": 6.30
  }
]

----------
molecular target: DYRK1A (Homo sapiens, UniProt Q13627); test: biochemical; format: binding; conditions: DYRK1A IC50, TR-FRET, 10-point 2-fold dose response
pIC50: −log10 of the molar value.
Lab note: compare pIC50 against 6. Equal or greater, write Condition met. Smaller, write Condition not met.

[
  {
    "compound": "Cc1[nH]ccc2c1[nH]c1cc(=O)ccc12 [Harmol, harmol]",
    "discrete_label": "Condition met"
  },
  {
    "compound": "CC1=NCCc2c1[nH]c1cc(O)ccc21 [Harmalol, harmalol]",
    "discrete_label": "Condition met"
  },
  {
    "compound": "Cc1nccc2c1[nH]c1ccccc12 [Harmane, harmane]",
    "discrete_label": "Condition not met"
  },
  {
    "compound": "c1ccc2c(c1)[nH]c1cnccc12 [Norharmane, norharmane]",
    "discrete_label": "Condition not met"
  },
  {
    "compound": "COc1ccc2c3c([nH]c2c1)C(C)=NCC3 [Harmaline, harmaline]",
    "discrete_label": "Condition not met"
  }
]

----------
target: Monoamine oxidase-A (MAO-A) (Homo sapiens); assay: biochemical; assay type: biochemical; details: read-out: MAO-A IC50, MAO-A Glo
pIC50: −log10 of the molar value.

[
  {
    "compound": "COc1ccc2c3c([nH]c2c1)[C@@H](C)NCC3 [Tetrahydroharmine, tetrahydroharmine]",
    "pIC50": 5.82
  }
]

----------
biological target: DYRK1A (Homo sapiens); experiment: biochemical; format: biochemical; conditions: read-out: DYRK1A IC50, 33P-ATP; casein substrate, ATP 10 μM; data generated by Reaction Biology
pIC50: −log10 of the molar value.

[
  {
    "compound": "COc1ccc2c3c([nH]c2c1)[C@@H](C)NCC3 [Tetrahydroharmine, tetrahydroharmine]",
    "pIC50": 5.19
  }
]

----------
Target: UniProt P21397
Sequence (P21397 1-527): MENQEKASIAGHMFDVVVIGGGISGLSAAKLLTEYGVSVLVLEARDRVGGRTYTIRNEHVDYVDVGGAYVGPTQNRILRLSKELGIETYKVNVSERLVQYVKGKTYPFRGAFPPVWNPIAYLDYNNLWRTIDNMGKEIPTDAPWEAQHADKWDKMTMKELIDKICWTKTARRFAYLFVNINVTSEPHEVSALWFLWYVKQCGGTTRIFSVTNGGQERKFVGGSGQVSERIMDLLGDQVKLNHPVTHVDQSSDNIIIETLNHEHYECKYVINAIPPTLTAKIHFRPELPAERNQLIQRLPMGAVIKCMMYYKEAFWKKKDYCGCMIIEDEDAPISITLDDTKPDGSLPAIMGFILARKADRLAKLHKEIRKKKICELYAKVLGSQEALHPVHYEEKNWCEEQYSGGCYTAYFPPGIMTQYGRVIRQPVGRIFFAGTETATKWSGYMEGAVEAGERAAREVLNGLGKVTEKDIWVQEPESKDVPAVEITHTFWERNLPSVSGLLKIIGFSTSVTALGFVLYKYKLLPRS
Experiment: biochemical
Assay type: biochemical
Conditions: MAO-A IC50, MAO-Glo
pIC50: −log10 of the molar value.
parameter_measured: pIC50

[
  {
    "molecule_smiles": "COc1ccc2c3c([nH]c2c1)C(C)=NCC3",
    "measured_result": "7.05 to 7.22"
  }
]
